Test system: H3K18Ac in HB-CLS-2 cells
experiment: H3K18AC in-cell western (ICW) assay
Assay type: cell-based
settings: H3K18Ac in-cell western; read-out: CREBBP ICW IC50
value type: IC50 (nM)

Consider the worked cases shown below.
-- ask For the compound CCn1ncc(CN(C)C(=O)c2cc(-c3ccccc3C#N)nc3ccc(Cl)cc23)c1C [Compound 81] , what IC50 is on record?
-- reply 1200

-- ask Then what about the compound CCn1ncc(CN(C)C(=O)c2nc(-c3ccc(OCCNC)c(Cl)c3)nc3ccc(C4COC4)cc23)c1C [Compound 498] ?
-- reply 5550

-- ask Moving on to CCn1ncc(CN(C)C(=O)c2nc(-c3cc(C)cc(NC4CNC4)c3)nc3ccc(Cl)cc23)c1C [Compound 444]
-- reply 160

A: CCn1ncc(CN(C)C(=O)c2nc(-c3ccc(OCCNC)c(Cl)c3)nc3ccc(C(F)F)cc23)c1C [Compound 441]
B: CCn1ncc(CN(C)C(=O)c2nc(-n3cc4c(n3)CN(C(=O)OC(C)(C)C)CC4)nc3ccc(Cl)cc23)c1C [Compound 193]
C: CCn1ncc(CN(C)C(=O)c2nc(-c3cc4[nH]ncc4cc3C)nc3ccc(Cl)cc23)c1C [Compound 10]
-- ask Hi! Can you put these in order of IC50, lowest number first? # list labels per requested ordering
-- reply C, A, B

Source of measurements: patent US20220144812A1
